src = patent US8742110B2

Biological target: SSTR5 (Homo sapiens (Human))
Test: SSTR5 binding assay
Conditions: CHO-K1 membranes expressing cloned human SSTR5
pIC50: −log10 of the molar value. Where a name gives a salt, the structure may show the parent alone.
Answer class 0 if pIC50 is under 9, and class 1 if it is 9 or more.

Task item: Answer whether pIC50 of CC(C)(C)n1nc(CN2CCC3(CC2)CN(c2ccc(C(=O)O)cc2)C(=O)O3)c2cc(Cl)c(F)cc21 [Example 6-17, TFA salt] is greater than or equal to 9.
Reply: class 0

Task item: Answer whether pIC50 of CCOc1cc(CN2CCC3(CC2)CN(c2ccc(C(=O)O)cc2Cl)C(=O)O3)cc(OCC)c1-c1ccc(F)cc1 [Example 3-19, TFA salt] is greater than or equal to 9.
Reply: class 1

Task item: Answer whether pIC50 of COc1ccc(-c2nn(-c3ccccc3)cc2CN2CCC3(CC2)CN(c2ccc(C(=O)O)cc2)C(=O)O3)cc1 [Example 1-9, TFA salt] is greater than or equal to 9.
Reply: class 0

Task item: Answer whether pIC50 of O=C(O)c1ccc(N2CC3(CCN(Cc4n[nH]c5ccc(F)cc45)CC3)OC2=O)cc1 [Example 6-1, TFA salt] is greater than or equal to 9.
Reply: class 0

Task item: Answer whether pIC50 of Cc1cc(CN2CCC3(CC2)CN(c2ccc(C(=O)O)cc2)C(=O)O3)cc2c1OCC2(C)C [Example 5-1, TFA salt] is greater than or equal to 9.
Reply: class 0

---

Consider the following molecules; for each one, report its pIC50.
Target: SSTR5 (Homo sapiens (Human), UniProt P35346)
Sequence (P35346 whole entry): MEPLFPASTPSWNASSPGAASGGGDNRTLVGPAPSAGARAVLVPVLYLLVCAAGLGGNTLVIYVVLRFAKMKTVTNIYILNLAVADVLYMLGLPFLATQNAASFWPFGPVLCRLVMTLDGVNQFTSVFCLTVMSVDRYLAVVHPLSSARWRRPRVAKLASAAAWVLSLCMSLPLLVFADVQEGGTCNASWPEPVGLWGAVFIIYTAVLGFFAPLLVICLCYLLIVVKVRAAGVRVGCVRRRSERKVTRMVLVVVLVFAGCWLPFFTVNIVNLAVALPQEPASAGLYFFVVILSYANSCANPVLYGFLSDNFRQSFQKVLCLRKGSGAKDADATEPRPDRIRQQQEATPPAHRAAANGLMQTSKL
Assay: SSTR5 binding assay
Details: CHO-K1 membranes expressing cloned human SSTR5
Where a name gives a salt, the structure may show the parent alone.
Reminder that pIC50 is minus the log10 of a molar concentration.

Input CCOc1cc(CN2CCC3(CC2)CN(c2ccc(C(=O)O)cc2)C(=O)O3)cc2ccc(C(F)(F)F)nc12 [Example 5-9, TFA salt] . Output pIC50: 7.95

Input CCOc1cc(CN2CCC3(CC2)CN(c2ccc(C(=O)O)cc2)C(=O)O3)c(-c2ccc(C(F)(F)F)nc2)cc1C [Example 4-20, TFA salt] . Output pIC50: 9.20

Input CC(C)n1cc(CN2CCC3(CC2)CN(c2ccc(C(=O)O)cc2)C(=O)O3)c(-c2ccc(F)c(F)c2F)n1 [Example 1-17, TFA salt] . Output pIC50: 8.67

Input CCCCn1cc(CN2CCC3(CC2)CN(c2ccc(C(=O)O)cc2)C(=O)O3)c(-c2ccc(F)c(F)c2F)n1 [Example 1-18, TFA salt] . Output pIC50: 8.57

Input CCOc1cc(CN2CCC3(CC2)CN(c2ccc(C(=O)O)cc2)C(=O)O3)cc2cnc(C(F)(F)F)cc12 [Example 5-8, TFA salt] . Output pIC50: 9.37

Input CC1(C)CC(C)(C)c2cc(CN3CCC4(CC3)CN(c3ccc(C(=O)O)cc3)C(=O)O4)ccc2O1 [Example 5-11, TFA salt] . Output pIC50: 7.85

---

Consider the following compounds; for each one, report its IC50.
Target: SSTR5 (Homo sapiens (Human), UniProt P35346)
Assay: SSTR5 binding assay
Conditions: CHO-K1 membranes expressing cloned human SSTR5
Procedure: The receptor-ligand binding assays of all 5 subtype of SSTRs were performed with membranes isolated from Chinese hamster ovary (CHO)-K1 cells stably expressing the cloned human somatostatin receptors in 96-well format as previous reported. The stable cell lines for SSTR1-SSTR5 were developed by stably transfecting with DNA for all five SSTRs using Lipofectamine. […]
Counter-ions that a name gives are not always drawn.
# value in nM; strip the unit string

Input Cc1cc(CN2CCC3(CC2)CN(c2ccc(C(=O)O)cc2)C(=O)O3)cc2c1OCCC2(C)C [Example 5-13, TFA salt] . Output IC50: 0.317

Input CC1(C)Cc2cc(CN3CCC4(CC3)CN(c3ccc(C(=O)O)cc3)C(=O)O4)ccc2O1 [Example 5-18, TFA salt] . Output IC50: 45.3

Input CCOc1cc(CN2CCC3(CC2)CN(c2ccc(-c4nn[nH]n4)cc2)C(=O)O3)cc(OCC)c1-c1ccc(F)cc1 [Example 3-12, TFA salt] . Output IC50: 0.323

Input CCOc1cc(C)nc2c(OCC)cc(CN3CCC4(CC3)CN(c3ccc(C(=O)O)cc3)C(=O)O4)cc12 [Example 5-4, TFA salt] . Output IC50: 65.2
